# reported composite z-score; entries follow
test system: Inhibin beta A chain (activin A); assay: INHBA (activin A) binders on microarrays, primary screen, biochemical, small-molecule microarray, 635 nm fluorescence scan (AID 1107); conditions: small-molecule microarray binding, higher = more signal;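 note: mouse activin A protein probed at 4.33 µg/mL on printed slides; score merges bound-protein fluorescence near 667 nm with spot signal-to-noise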
Reply briefly: the number, and no unit.

As a guide, the following entries are already answered.
smiles-code	composite z-score
CC(C)NC(=O)[C@@H]1c2ccccc2C(=O)N(Cc2ccccc2Cl)[C@H]1c1ccc(CO)cc1	0.365
Cc1ccc(F)cc1S(=O)(=O)N[C@@H]1CCN(Cc2ccc(-c3ccccc3)cc2)C1	0.42

Request: Assign composite z-score to the following record: Cc1ccc([C@H]2[C@H](C(=O)O)[C@H](Sc3ccccc3)[C@@H](C(C)C)N2S(=O)(=O)c2ccc(C)cc2)cc1
Response: 0.417

* * *

assay: cell viability in Huh7 cells, primary screen, cytotoxicity control for HCV replication inhibitor project, CellTiter-Glo luminescence, basal, 48 h (AID 1143); conditions: Huh7 HCV replicon, higher = more signal, called active from +8 up or from −8 down;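 note: Huh7 hepatoma cells carrying a hepatitis C replication reporter with no stimulus; test concentration not given here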
Please enter label 1 where z-score is greater than or equal to -2, and label 0 where it is lower.

Worked examples follow.
compound	qualitative-label
C=CCC(OC(C)=O)[C@@H]1[C@@H](N(Cc2ccc(-c3ccccc3)cc2)C(=O)Cc2ccc(OC)cc2)c2cc(OCCCO)ccc2N1C(=O)c1ccc2ccccc2n1 (some centres undefined)	label 1
O=C1[C@]2(CO)C=C(Br)[C@@H](C[C@@H]2c2ccccc2)[C@@]12CO2	label 1
O=C1OCCC=C[C@H]2OC34C=CCN(Cc5ccccc5)C(=O)[C@H]3N(CCCO)C(=O)[C@@H]4C12 (some centres undefined)	label 0
NC(=O)NCC#Cc1ccc2c(c1)[C@]1(C(=O)N2)[C@H](C(=O)NC[C@H](O)c2ccccc2)[C@H]2C(=O)O[C@H](c3ccccc3)[C@H](c3ccccc3)N2[C@@H]1c1ccc(O)cc1	label 1
CC(c1ccccc1)C(O)C1C=CC2C(=O)NC(=O)C2N1Nc1ccccn1 (centres undefined)	label 1
N[C@@H](Cc1ccccc1)Cn1cc(-c2ccccc2)nn1	label 0

Request: Does z-score meet or surpass -2 for COc1ccc(C#Cc2ccc3c(c2)[C@]2(C(=O)N3)[C@H](C(=O)NC[C@H](O)c3ccccc3)[C@H]3C(=O)O[C@H](c4ccccc4)[C@H](c4ccccc4)N3[C@@H]2c2ccc(OCCO)cc2)cc1 ?
Response: label 0

Request: Determine whether measured z-score meets or exceeds -2 for COC(=O)[C@@]1(Cc2ccccc2N=[N+]=[N-])COC(c2ccc(OCCCO)cc2)=N1
Response: label 0

Request: Could you please find out whether CN(C)CCCCCCNC(=O)[C@H]1C[C@H]2C(=O)N[C@@H](CCCCN)C(=O)N2[C@H]1c1ccc(O)cc1 has z-score that meets -2 or exceeds it?
Response: label 1

Request: In plain terms: is recorded z-score at least -2 for CCOC(=O)C1=C[C@@H](CC)N(S(=O)(=O)c2ccc(C)cc2)[C@H]1c1ccccc1 ?
Response: label 0

Request: Does z-score meet or surpass -2 for Cc1ccc(S[C@]2(C(=O)NCC(C)C)CC(=O)N(Cc3ccccc3Cl)[C@@H]2c2ccc(CO)cc2)cc1 ?
Response: label 1

Request: Decide: z-score of CC(=O)Nc1cc(Br)ccc1C(=O)O >= -2?
Response: label 1

Request: Is z-score at least -2? Consider COc1ccc([Si](C)(C)[C@@H]2[C@@H](CC(=O)N3CCC[C@H]3CO)O[C@]3(C(=O)N(C)c4c(Br)cc(C)cc43)[C@H]2C)cc1
Response: label 0

Request: Decide: z-score of O=c1oc(-c2ccccc2)nc2cc(Br)ccc12 >= -2?
Response: label 1
